List of log10 Ki tested on hDAT (Homo sapiens).
Sequence (Q01959 whole entry): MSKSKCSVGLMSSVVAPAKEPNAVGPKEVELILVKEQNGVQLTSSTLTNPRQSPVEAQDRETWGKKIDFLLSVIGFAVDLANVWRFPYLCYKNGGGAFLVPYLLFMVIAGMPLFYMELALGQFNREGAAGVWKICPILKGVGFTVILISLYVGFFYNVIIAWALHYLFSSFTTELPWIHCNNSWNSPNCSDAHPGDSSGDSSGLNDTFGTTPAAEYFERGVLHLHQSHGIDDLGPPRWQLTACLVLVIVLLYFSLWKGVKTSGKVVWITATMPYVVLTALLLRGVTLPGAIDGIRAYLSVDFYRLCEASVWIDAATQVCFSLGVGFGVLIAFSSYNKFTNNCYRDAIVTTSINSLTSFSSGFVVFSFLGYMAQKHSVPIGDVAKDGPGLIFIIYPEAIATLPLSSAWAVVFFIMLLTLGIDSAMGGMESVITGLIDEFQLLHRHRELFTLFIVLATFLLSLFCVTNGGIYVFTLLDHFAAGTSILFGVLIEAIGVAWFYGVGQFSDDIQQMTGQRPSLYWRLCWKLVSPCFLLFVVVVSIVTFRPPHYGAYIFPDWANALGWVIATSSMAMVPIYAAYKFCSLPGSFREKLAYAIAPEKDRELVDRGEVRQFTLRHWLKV
Recall that a logarithmic scale is used here: each number is log10 of Ki in nM.

Task: Dear colleague, I am looking for the recorded log10 Ki of the following molecule: CNC[C@]1(c2ccc(Cl)c(Cl)c2)C[C@H]1c1ccc(Cl)c(Cl)c1 [compound 32694]
Result: 3.10

Task: And what about the molecule CNC[C@]1(c2ccccc2)C[C@H]1c1ccccc1 [compound 32696] ?
Result: 3.67

Task: Likewise for CNC[C@]1(c2ccc(Cl)c(Cl)c2)C[C@H]1c1ccccc1 [32,222] ?
Result: 3.82

Task: Item: CNC[C@]1(c2ccccc2)C[C@H]1c1ccc(Cl)c(Cl)c1 [32,220]
Result: 3.16

Task: Try CNC[C@@]1(c2ccccc2)C[C@@H]1c1ccc(Cl)c(Cl)c1 [32,219] next.
Result: 2.34

Task: Please give the result for CNC[C@@]1(c2ccc(Cl)c(Cl)c2)C[C@@H]1c1ccc(Cl)c(Cl)c1 [compound 32695] too.
Result: 2.86

Task: Field entry: CNC[C@@]1(c2ccc(Cl)c(Cl)c2)C[C@@H]1c1ccccc1 [32,221]
Result: 3.14

Task: Repeat with CNC[C@]1(c2ccccc2)C[C@H]1c1ccc2ccccc2c1 [compound 32698]
Result: 3.20
